B1: Zinc finger homeobox protein 3, residues 2643 to 2698; numbered along this chain, Q15911 (parent)
chain: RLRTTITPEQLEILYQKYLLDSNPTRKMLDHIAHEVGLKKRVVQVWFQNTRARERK

# Variants of: B1
# assay-name: abundance fitness (aPCA) (normalised: wild type 0, dead -1); higher = more abundant; growth selection in yeast, the domain comes from the species named
# conditions-used: Homo sapiens
property: abundance fitness
The response must contain the number and no unit.

W46I = -1.03

Prompt line: Field request: abundance fitness | item: G37T
Response line: -0.825
